Where do the numbers come from? From patent US10925876B2.

Target: sGC α1/β1 heterodimer (Homo sapiens, UniProt Q02108+Q02153)
Construct: expressed in transfected cells
Sequence (Q02108 1-690): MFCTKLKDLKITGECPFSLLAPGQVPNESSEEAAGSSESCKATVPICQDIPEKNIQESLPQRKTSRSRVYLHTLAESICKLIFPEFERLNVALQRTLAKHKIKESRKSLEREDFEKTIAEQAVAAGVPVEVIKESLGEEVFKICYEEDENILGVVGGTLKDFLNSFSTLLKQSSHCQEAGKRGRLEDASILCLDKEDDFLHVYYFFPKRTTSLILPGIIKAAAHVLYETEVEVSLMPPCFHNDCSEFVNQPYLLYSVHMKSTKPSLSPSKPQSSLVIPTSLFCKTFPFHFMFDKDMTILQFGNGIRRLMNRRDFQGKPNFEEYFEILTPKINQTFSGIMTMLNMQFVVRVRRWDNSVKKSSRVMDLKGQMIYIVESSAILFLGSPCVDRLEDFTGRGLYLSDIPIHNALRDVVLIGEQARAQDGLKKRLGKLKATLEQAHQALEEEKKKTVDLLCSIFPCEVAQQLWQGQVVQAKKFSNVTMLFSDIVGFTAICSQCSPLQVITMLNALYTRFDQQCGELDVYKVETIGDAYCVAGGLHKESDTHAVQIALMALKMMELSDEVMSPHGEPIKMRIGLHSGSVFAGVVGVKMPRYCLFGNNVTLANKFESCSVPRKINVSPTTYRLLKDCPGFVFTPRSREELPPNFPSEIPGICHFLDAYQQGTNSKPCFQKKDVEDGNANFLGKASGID
Sequence (Q02153 1-619): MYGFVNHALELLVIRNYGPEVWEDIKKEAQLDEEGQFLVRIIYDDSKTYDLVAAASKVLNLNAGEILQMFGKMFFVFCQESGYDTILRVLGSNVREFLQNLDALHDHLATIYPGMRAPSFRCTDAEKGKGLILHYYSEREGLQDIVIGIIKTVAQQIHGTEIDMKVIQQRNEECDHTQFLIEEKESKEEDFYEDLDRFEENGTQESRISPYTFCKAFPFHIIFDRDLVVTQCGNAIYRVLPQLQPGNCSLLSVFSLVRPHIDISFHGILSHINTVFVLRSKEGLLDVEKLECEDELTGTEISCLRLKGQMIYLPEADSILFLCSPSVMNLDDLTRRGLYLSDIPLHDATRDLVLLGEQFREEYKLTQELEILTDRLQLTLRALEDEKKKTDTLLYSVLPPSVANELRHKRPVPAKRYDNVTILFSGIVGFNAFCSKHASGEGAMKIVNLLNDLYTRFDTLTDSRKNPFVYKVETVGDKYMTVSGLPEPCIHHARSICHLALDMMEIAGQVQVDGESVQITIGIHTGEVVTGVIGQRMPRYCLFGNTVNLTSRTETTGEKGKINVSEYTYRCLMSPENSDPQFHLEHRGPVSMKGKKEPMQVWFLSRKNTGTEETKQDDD
Test: Cell-Based sGC Functional Assay (CASA Assay), cGMP generation in CHO-K1/sGC cells;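 note: reference Compound A is a published heme-dependent sGC activator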
Settings: maximum cGMP production of Compound A set to 100% activation, read-out: % Act. (percent activation relative to Compound A)
Give Emax for every item shown.
Give the value, in units of %, as a plain number.

Query :: Record CC1(c2ccc(Cl)cc2)C(=O)Nc2nc(-c3cn4ncnc4c(CCC(F)(F)C(F)(F)F)n3)nc(O)c21 (stereo not drawn) [Example 126A] : what is its Emax with sGC α1/β1 heterodimer (Homo sapiens, UniProt Q02108+Q02153)?
Result :: 102

Query :: Record CC1(c2ccc(C(F)(F)F)cn2)C(=O)Nc2nc(-c3cn4ncnc4c(CCC(F)(F)F)n3)nc(N)c21 (stereo not drawn) [Example 78B] : what is its Emax with sGC α1/β1 heterodimer (Homo sapiens, UniProt Q02108+Q02153)?
Result :: 83

Query :: Record CC1(c2ccc(C(F)(F)F)cc2)C(=O)Nc2nc(-c3cn4ncnc4c(CCC(F)(F)F)n3)nc(N)c21 (stereo not drawn) [Example 77B] : what is its Emax with sGC α1/β1 heterodimer (Homo sapiens, UniProt Q02108+Q02153)?
Result :: 112
